# targetOfAssay: Integrin alpha-V/beta-6 (Homo sapiens, UniProt P06756+P18564)
# Sequence (P06756 31-889 limits assumed): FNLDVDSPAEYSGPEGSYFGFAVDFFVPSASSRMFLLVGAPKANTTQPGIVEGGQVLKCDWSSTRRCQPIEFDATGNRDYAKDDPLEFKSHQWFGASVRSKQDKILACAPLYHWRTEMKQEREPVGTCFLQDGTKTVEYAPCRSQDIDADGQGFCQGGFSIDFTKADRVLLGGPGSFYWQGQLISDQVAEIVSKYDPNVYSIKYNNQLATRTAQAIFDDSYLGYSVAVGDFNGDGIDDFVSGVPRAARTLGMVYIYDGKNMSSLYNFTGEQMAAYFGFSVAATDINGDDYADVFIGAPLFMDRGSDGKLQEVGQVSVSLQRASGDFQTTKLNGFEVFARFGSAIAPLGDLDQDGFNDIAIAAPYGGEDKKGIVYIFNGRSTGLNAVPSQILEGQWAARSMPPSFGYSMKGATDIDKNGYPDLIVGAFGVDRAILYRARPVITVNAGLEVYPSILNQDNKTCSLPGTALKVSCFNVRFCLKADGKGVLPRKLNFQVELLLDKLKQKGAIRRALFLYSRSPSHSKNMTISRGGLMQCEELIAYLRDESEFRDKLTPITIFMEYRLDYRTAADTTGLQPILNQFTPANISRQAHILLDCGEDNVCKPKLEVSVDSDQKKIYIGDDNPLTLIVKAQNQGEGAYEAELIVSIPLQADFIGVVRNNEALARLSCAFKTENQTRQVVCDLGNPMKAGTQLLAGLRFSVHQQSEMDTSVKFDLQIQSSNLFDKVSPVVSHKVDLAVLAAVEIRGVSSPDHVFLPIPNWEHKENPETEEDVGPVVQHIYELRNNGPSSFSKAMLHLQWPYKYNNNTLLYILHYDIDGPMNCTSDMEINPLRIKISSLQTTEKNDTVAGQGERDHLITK
# Sequence (P06756 891-1048 limits assumed): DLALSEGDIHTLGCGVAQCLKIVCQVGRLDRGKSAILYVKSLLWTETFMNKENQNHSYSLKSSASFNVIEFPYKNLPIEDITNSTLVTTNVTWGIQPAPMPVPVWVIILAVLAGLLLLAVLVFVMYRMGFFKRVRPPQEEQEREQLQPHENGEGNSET
# Sequence (P18564 22-788 limits assumed): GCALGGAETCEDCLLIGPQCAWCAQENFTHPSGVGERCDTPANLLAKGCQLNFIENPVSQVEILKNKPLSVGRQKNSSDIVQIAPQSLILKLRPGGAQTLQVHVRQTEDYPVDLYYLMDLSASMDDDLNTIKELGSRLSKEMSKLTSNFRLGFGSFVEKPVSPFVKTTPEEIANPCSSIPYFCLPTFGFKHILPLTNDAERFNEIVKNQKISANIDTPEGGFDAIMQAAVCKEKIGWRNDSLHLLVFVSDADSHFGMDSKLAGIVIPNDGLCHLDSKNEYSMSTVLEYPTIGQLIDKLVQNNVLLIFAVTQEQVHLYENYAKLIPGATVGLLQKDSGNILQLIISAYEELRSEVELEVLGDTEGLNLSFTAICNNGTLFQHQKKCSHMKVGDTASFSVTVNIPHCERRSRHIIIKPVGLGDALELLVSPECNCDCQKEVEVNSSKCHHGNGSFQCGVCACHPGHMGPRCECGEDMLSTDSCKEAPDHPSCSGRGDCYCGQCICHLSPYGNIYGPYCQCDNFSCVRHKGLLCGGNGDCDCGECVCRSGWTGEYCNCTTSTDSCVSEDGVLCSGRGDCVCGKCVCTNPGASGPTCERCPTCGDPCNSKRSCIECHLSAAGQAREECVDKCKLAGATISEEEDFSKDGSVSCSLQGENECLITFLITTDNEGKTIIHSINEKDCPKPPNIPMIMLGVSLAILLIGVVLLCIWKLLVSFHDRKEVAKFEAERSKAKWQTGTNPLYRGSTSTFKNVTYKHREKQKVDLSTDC
# assayProtocol: Inhibition of latency-associated peptide binding to Integrin alphaVbeta6 receptor (unknown origin) by competitive ELISA
experimentalEndpoint: IC50 (nM)

1. NCCCC[C@@H]1NC(=O)[C@H](CCCN=C(N)N)NC(=O)CNC(=O)C[C@@H](C(=O)O)NC(=O)[C@@H](c2ccccc2)NC1=O    140
2. N=C(N)NCCC[C@@H]1NC(=O)CNC(=O)C[C@@H](C(=O)O)NC(=O)[C@@H](c2ccccc2)NC(=O)[C@@H](CCCCN)NC1=O    19
3. NC(N)=NCCC[C@@H]1NC(=O)CNC(=O)C[C@@H](C(=O)O)NC(=O)[C@@H](c2ccccc2)NC(=O)[C@@H](Cc2c[nH]c3ccccc23)NC1=O    92
4. N=C(N)NCCC[C@@H]1NC(=O)CNC(=O)C[C@@H](C(=O)O)NC(=O)[C@@H](c2ccccc2)NC(=O)CNC1=O    106
5. Cc1ccnc(NCCCC(=O)NCC(=O)NC(CC(=O)O)c2ccc(-c3cccc4ccccc34)cc2)c1 (stereo unspecified)    4
6. N=C(N)NCCC[C@@H]1NC(=O)[C@H](CCCCN)NC(=O)[C@@H](Cc2ccccc2)NC(=O)[C@H](CC(=O)O)NC(=O)CNC1=O    68
